- Target Desc: recombinant human TFPI (tissue factor pathway inhibitor) (human, UniProt P10646 29-304)
- Test Protocol: cell-based or functional assay
A collection of binders and their measured % of Normalized, TF/FVIIa/FX complex assay, Ab 3.13 nM
Unit % implied. Number only.

Below, each entry is followed by its recorded % of Normalized, TF/FVIIa/FX complex assay, Ab 3.13 nM result.
binder="clone A67 (antibody, V domains shown) VH: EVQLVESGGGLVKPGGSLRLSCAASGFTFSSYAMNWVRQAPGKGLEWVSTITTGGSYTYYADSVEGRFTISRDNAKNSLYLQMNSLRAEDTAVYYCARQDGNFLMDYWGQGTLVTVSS VL: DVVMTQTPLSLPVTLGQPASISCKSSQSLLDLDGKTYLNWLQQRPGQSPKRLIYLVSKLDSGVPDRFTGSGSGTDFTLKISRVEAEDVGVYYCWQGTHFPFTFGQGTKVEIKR" result_number=18.7
binder="clone 3203 (antibody, V domains shown) VH: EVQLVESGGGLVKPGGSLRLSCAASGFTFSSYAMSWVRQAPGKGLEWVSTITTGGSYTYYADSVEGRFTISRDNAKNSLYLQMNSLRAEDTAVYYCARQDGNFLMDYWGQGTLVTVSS VL: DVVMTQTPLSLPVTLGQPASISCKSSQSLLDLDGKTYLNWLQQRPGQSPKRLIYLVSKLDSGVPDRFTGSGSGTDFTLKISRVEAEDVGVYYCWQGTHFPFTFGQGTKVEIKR" result_number=17.7

Next binder, please.
Inquiry: Need % of Normalized, TF/FVIIa/FX complex assay, Ab 3.13 nM of clone 3241 (antibody, V domains shown, scFv on yeast at selection; human IgG4/kappa IgG as purified; also called No. 3241 antibody) VH: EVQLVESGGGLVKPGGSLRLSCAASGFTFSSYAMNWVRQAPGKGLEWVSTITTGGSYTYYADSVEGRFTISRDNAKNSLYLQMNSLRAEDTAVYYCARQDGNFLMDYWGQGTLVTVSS VL: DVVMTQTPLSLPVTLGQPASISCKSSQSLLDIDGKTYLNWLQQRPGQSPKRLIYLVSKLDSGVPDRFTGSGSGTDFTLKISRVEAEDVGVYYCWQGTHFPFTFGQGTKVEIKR , thanks.
Reply text: 18.7

Reference source for all entries: patent US20180030151A1
